- assay-target: T1, cynomolgus (Macaca fascicularis) ST2L extracellular domain with C-terminal His6 tag (Macaca fascicularis (cynomolgus), UniProt Q01638 19-321 (human entry))
- T1 construct: also called cyno ST2L-ECD; cynoST2L-ECD
- T1 chain: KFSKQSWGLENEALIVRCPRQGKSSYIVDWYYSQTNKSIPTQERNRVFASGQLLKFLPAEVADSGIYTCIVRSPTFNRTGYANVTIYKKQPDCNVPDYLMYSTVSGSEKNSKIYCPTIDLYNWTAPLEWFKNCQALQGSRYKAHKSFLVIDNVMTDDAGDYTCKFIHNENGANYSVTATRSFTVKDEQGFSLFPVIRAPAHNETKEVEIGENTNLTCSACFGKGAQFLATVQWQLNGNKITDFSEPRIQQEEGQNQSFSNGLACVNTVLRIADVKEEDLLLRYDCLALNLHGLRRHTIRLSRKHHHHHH
- method: SPR, mAb captured, ST2L-ECD in solution
property: koff (s⁻¹)
Answers are plain numbers, in s⁻¹.

Answered examples (2):
Kindly note the recorded koff for STLM219 (antibody, V domains shown, frameworks VH3-23 / Vk-L6) VH: EVQLLESGGGLVQPGGSLRLSCAASGFTFSGYDMFWVRQAPGKGLEWVSDIGGEGGSTNYADSVKGRFTISRDNSKNTLYLQMNSLRAEDTAVYYCARDPWSTEGSFFVLDYWGQGTLVTVSS VL: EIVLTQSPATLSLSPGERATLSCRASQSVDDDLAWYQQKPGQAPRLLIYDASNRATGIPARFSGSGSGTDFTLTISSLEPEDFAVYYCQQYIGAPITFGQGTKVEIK , which is 0.00023

Kindly note the recorded koff for STLM231 (antibody, V domains shown, VH STLH201 + VL STLL273; also called S1LM231) VH: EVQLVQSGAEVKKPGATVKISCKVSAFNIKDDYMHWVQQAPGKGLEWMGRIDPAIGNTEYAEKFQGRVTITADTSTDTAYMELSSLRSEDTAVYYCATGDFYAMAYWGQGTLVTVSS VL: DIQMTQSPSSLSASVGDRVTITCITNTDIDDVIHWYQQKPGKVPKLLIYEGNTLRPGVPSRFSGSGSGTDFTLTISSLQPEDVATYYCLQSDNMLTFGQGTKLEIK , which is 0.0143

We next turn to a different binder, shown below.
Kindly note the recorded koff for STLM229 (antibody, V domains shown, VH STLH201 + VL STLL275) VH: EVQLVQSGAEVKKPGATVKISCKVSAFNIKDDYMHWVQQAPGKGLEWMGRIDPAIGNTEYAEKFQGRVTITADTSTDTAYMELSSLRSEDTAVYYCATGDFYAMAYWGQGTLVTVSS VL: DIQMTQSPSSVSASVGDRVTITCITNTDIDDVIHWYQQKPGKAPKLLIYEGNTLRPGVPSRFSGSGSGTDFTLTISSLQPEDFATYYCLQSDNMLTFGQGTKLEIK , which is 0.0085

meta.source: patent US20170066831A1
